Biological target: HLA-A*02:16
Test: IEDB peptide-MHC binding, purified MHC/direct/fluorescence; filed as Kd, often an IC50 or EC50 that approximates it; bounds were set here for any values at or beyond the usual limits of such assays
Conditions: source organism: Listeria monocytogenes serotype 4b str. H7858
measured_endpoint: Kd

[[record]]
seq = "FPDGKPFTL"
measured_on = "HLA-A*02:16"
result = "≥ 20 µM"

[[record]]
seq = "ERYPGGVSL"
measured_on = "HLA-A*02:16"
result = "≥ 20 µM"


----------
Target: HLA-B*51:01
Experiment: IEDB peptide-MHC binding, purified MHC/direct/fluorescence; filed as Kd, often an IC50 or EC50 that approximates it; bounds were set here for any values at or beyond the usual limits of such assays
Settings: source organism: Yellow fever virus 17D
measured_endpoint: Kd

[[record]]
seq = "RVSSDQSAL"
measured_endpoint = "Kd"
result = "≥ 20 µM"


----------
Molecular target: HLA-A*31:01
Experiment: IEDB peptide-MHC binding, purified MHC/competitive/radioactivity; filed as Kd, often an IC50 or EC50 that approximates it; bounds were set here for any values at or beyond the usual limits of such assays
Conditions: source organism: Lassa virus GA391
pKd: −log10 of the molar value.
measured_endpoint: pKd

[[record]]
seq = "NYSRYWYLNH"
measured_endpoint = "pKd"
recorded_number = 5.10


----------
Biological target: HLA-A*03:01
Experiment: IEDB peptide-MHC binding, purified MHC/direct/fluorescence; filed as Kd, often an IC50 or EC50 that approximates it; bounds were set here for any values at or beyond the usual limits of such assays
Conditions: source organism: Shigella sonnei Ss046
measured_endpoint: Kd (nM)

[[record]]
seq = "VLDMGDPVK"
measured_endpoint = "Kd"
recorded_number = 2090


----------
Entries and their Kd values follow.
Molecular target: HLA-B*15:01
Assay: IEDB peptide-MHC binding, purified MHC/competitive/fluorescence; filed as Kd, often an IC50 or EC50 that approximates it; bounds were set here for any values at or beyond the usual limits of such assays
Details: source organism: Homo sapiens
measured_endpoint: Kd

[[record]]
seq = "HLLCQAFSV"
measured_on = "HLA-B*15:01"
result = "≥ 20 µM"

[[record]]
seq = "VVPSYIPLV"
measured_on = "HLA-B*15:01"
result = "≥ 20 µM"


----------
Target: HLA-B*46:01
Assay: IEDB peptide-MHC binding, purified MHC/competitive/fluorescence; filed as Kd, often an IC50 or EC50 that approximates it; bounds were set here for any values at or beyond the usual limits of such assays
Settings: source organism: Homo sapiens
pKd: −log10 of the molar value.
measured_endpoint: pKd

[[record]]
seq = "VVPSYIPLV"
result = "≤ 4.70"

[[record]]
seq = "HLLCQAFSV"
result = "≤ 4.70"


----------
Molecular target: HLA-A*03:01
Experiment: IEDB peptide-MHC binding, purified MHC/direct/fluorescence; filed as Kd, often an IC50 or EC50 that approximates it; bounds were set here for any values at or beyond the usual limits of such assays
Conditions: source organism: Francisella tularensis subsp. holarctica LVS
measured_endpoint: Kd (nM)

[[record]]
seq = "KQNHMQILK"
recorded_number = 156


----------
Target: HLA-C*08:02
Assay: IEDB peptide-MHC binding, purified MHC/direct/fluorescence; filed as Kd, often an IC50 or EC50 that approximates it; bounds were set here for any values at or beyond the usual limits of such assays
Conditions: source organism: Xenopus laevis
pKd: −log10 of the molar value.
measured_endpoint: pKd

[[record]]
seq = "YLDDPDLKY"
measured_endpoint = "pKd"
result = "≤ 4.70"

